Provenance of the data: paper PMC6637479

- target or test system: mEAG1 (Mus musculus)
- Construct: PAS domain, residues 7–136 (N-terminal 6-His)
- Sequence (Q60603 7-136): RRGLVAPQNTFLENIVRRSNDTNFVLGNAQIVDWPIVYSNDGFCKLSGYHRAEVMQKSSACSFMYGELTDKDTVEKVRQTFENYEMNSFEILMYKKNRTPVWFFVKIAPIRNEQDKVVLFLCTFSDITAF
- run description: SPR steady-state dose response (Biacore […]); also inhibits full-length mEAG1 currents in inside-out patches, IC50 […]
measured attribute: Kd

Retrieve Kd measured for C=CCCCCCCCCC(=O)O and print it.
~11 µM
